System: PCSK9 transcriptional activity
Experiment: Therapeutic index, ratio of TC50 for cytotoxicity against human HepG2 cells to IC50 for inhibition of PCSK9 transcriptional activity in human HepG2 cells stably expressing luciferase reporter plasmid containing PCSK9 promoter
Format: toxicity, cell-based
selectivity ratio reference
attribute measured: selectivity ratio

mol smiles	attribute measured	inequality symbol	experimental value
COc1cccc(Cn2c(NC[C@@H](C)O)nc3c2c(=O)n(C)c(=O)n3C)c1	selectivity ratio	=	22.9
COc1cccc(Cn2c(NCCO)nc3c2c(=O)n(C)c(=O)n3C)c1	selectivity ratio	=	16.8
Cn1c(=O)c2c(nc(NCCO)n2Cc2ccc(F)c(C(F)(F)F)c2)n(C)c1=O	selectivity ratio	=	7.1
COCCNc1nc2c(c(=O)n(C)c(=O)n2C)n1Cc1cccc(OC)c1	selectivity ratio	>	31.3
Cn1c(=O)c2c(nc(NCCO)n2Cc2cccc(Cl)c2F)n(C)c1=O	selectivity ratio	>	35.1
Cn1c(=O)c2c(nc(NCCO)n2Cc2ccccc2)n(C)c1=O	selectivity ratio	=	23.1

----------
Reported inhibition values for a set of compounds
Biological target: Proprotein convertase subtilisin/kexin type 9 (Homo sapiens)
Experiment: Inhibition of PCSK9 transcriptional activity in human HepG2 cells stably expressing luciferase reporter plasmid containing PCSK9 promoter assessed as decrease in luciferase activity at 10 ug/ml incubated for 24 hrs by Luciferase assay relative to control
Format: cell-based
Conditions: dose 10.0 µg/ml
attribute measured: inhibition (%)

compound	attribute measured	reading unit	experimental value
Cn1c(=O)c2c(nc(NCCO)n2Cc2cccc(F)c2)n(C)c1=O	inhibition	%	92.6
COc1cccc(Cn2c(NCCN(C)C)nc3c2c(=O)n(C)c(=O)n3C)c1	inhibition	%	19.6
Cn1c(=O)c2c(nc(NCCO)n2Cc2c(F)cccc2F)n(C)c1=O	inhibition	%	91
COc1cccc(Cn2c(NC(CO)CO)nc3c2c(=O)n(C)c(=O)n3C)c1	inhibition	%	37
COc1cccc(Cn2c(NCC(O)CO)nc3c2c(=O)n(C)c(=O)n3C)c1 (stereo not given)	inhibition	%	11.6
CCCn1c(NCCO)nc2c1c(=O)n(C)c(=O)n2C	inhibition	%	12.1
Cn1c(=O)c2c(nc(NCCO)n2CC(=O)c2ccccc2)n(C)c1=O	inhibition	%	40.8
COC(=O)CNc1nc2c(c(=O)n(C)c(=O)n2C)n1Cc1cccc(OC)c1	inhibition	%	68.4
COc1cccc(Cn2c(N3CCOCC3)nc3c2c(=O)n(C)c(=O)n3C)c1	inhibition	%	16.3
COc1ccc(Cn2c(NCCO)nc3c2c(=O)n(C)c(=O)n3C)cc1	inhibition	%	76.5

----------
Test: Acute toxicity in C57BL/6 mouse assessed as lethality upto 1000 mg/kg, IG and measured every day for 1 week
Type: organism-based
Details: in vivo, po, time 1 weeks
Measured LD50 at 168 h of individual entries

mol smiles	LD50 at 168 h
Cn1c(=O)c2c(nc(NCCO)n2Cc2cccc(Cl)c2F)n(C)c1=O	> 1000 mg/kg
COc1cccc(Cn2c(NCCO)nc3c2c(=O)n(C)c(=O)n3C)c1	300 mg/kg
COCCNc1nc2c(c(=O)n(C)c(=O)n2C)n1Cc1cccc(OC)c1	> 1000 mg/kg

----------
Biological target: Proprotein convertase subtilisin/kexin type 9 (Homo sapiens)
Assay: Inhibition of PCSK9 transcriptional activity in human HepG2 cells stably expressing luciferase reporter plasmid containing PCSK9 promoter assessed as decrease in luciferase activity at 10 ug/ml incubated for 24 hrs by Luciferase assay relative to control
Assay type: cell-based
Details: dose 10.0 µg/ml
# binarize inhibition: threshold 20% inclusive, high side y, low side n

compound	class assignment
COCCNc1nc2c(c(=O)n(C)c(=O)n2C)n1Cc1cccc(OC)c1	y
COc1cccc(Cn2c(N3CCCCC3CN3CCCC3)nc3c2c(=O)n(C)c(=O)n3C)c1 (stereo not given)	n
COc1cccc(Cn2c(N3CCSCC3)nc3c2c(=O)n(C)c(=O)n3C)c1	n
COc1cc(Cn2c(NCCO)nc3c2c(=O)n(C)c(=O)n3C)cc(OC)c1	n
COc1cccc(Cn2c(Nc3cccc(O)c3)nc3c2c(=O)n(C)c(=O)n3C)c1	n
